Ref: ChEMBL document CHEMBL4321830

# assaySummary: Hemolytic activity in sheep erythrocytes assessed as hemolysis at 200 ug/ml incubated for 30 by spectrophotometry relative to control
# Format: ADME, cell-based, Ovis aries, Erythrocyte
# conditionLabel: read-out: Activity
Where a SMILES comes first, the peptide text is derived from it. [ ]: non-standard residue; d: D form. The star is where a group is joined. NMeF = CN[C@@H](Cc1ccccc1)C(=O)O; dDab = NCC[C@@H](N)C(=O)O; Octanoyl = CCCCCCCC(=O)*; Dab = NCC[C@H](N)C(=O)O; Sar = CNCC(=O)O
quantity: hemolysis at 0.5 h, 200 ug/ml

Sample answers from the record:
CCCCCCCC(=O)N[C@@H](C(=O)N[C@H](CCN)C(=O)NCC(=O)N[C@H](CO)C(=O)N[C@H](Cc1c[nH]c2ccccc12)C(=O)N(C)CC(=O)N[C@@H](CCN)C(=O)N[C@H](CCN)C(=O)N[C@@H](Cc1ccccc1)C(=O)N[C@@H](CCC(=O)O)C(=O)N[C@H](C(=O)N[C@@H](C(=O)N[C@@H](C)C(=O)O)C(C)C)C(C)C)C(C)C (Octanoyl-[dV][dDab]G[dS][dW][Sar][Dab][dDab]FEV[dV]A-OH) | 38%
CCCCCCCC(=O)N[C@@H](C(=O)N[C@H](CCN)C(=O)NCC(=O)N[C@H](CO)C(=O)N[C@H](Cc1c[nH]c2ccccc12)C(=O)N(C)CC(=O)N[C@@H](CCN)C(=O)N[C@H](CCN)C(=O)N(C)[C@@H](Cc1ccccc1)C(=O)N[C@@H](CCC(=O)O)C(=O)N[C@H](C(=O)N[C@@H](C(=O)N[C@@H](C)C(=O)O)C(C)C)C(C)C)C(C)C (Octanoyl-[dV][dDab]G[dS][dW][Sar][Dab][dDab][NMeF]EV[dV]A-OH) | 60 to 78%
CCCCCCCC(=O)N[C@@H](C(=O)N[C@H](CCN)C(=O)NCC(=O)N[C@H](CO)C(=O)N[C@H](Cc1c[nH]c2ccccc12)C(=O)N[C@@H](CO)C(=O)N[C@@H](CCN)C(=O)N[C@H](CCN)C(=O)N[C@@H](Cc1ccccc1)C(=O)N[C@@H](CCC(=O)O)C(=O)N[C@H](C(=O)N[C@@H](C(=O)N[C@@H](C)C(=O)O)C(C)C)C(C)C)C(C)C (Octanoyl-[dV][dDab]G[dS][dW]S[Dab][dDab]FEV[dV]A-OH) | 53%

Read the next record carefully.
Inquiry: Could you share which hemolysis at 0.5 h, 200 ug/ml value was measured for CCCCCCCC(=O)N[C@@H](C(=O)N[C@H](CCN)C(=O)NCC(=O)N[C@H](CO)C(=O)N[C@H](Cc1c[nH]c2ccccc12)C(=O)N[C@@H](CO)C(=O)N[C@@H](CCN)C(=O)N[C@H](CCN)C(=O)N(C)[C@@H](Cc1ccccc1)C(=O)N[C@@H](CCC(=O)O)C(=O)N[C@H](C(=O)N[C@@H](C(=O)N[C@@H](C)C(=O)O)C(C)C)C(C)C)C(C)C (Octanoyl-[dV][dDab]G[dS][dW]S[Dab][dDab][NMeF]EV[dV]A-OH) ?
Reply text: 30%

* * *

# Test system: D-peptidase BogQ
# assaySummary: Substrate activity at bacterial D-peptidase BogQ expressed in Escherichia coli BL21 assessed as enzyme-mediated compound hydrolysis at 50 uM incubated for 1 hr by UPLC-MS analysis
# Type: ADME
# conditionLabel: bacteria; read-out: Activity
Where a SMILES comes first, the peptide text is derived from it. [ ]: non-standard residue; d: D form. The star is where a group is joined. NMeF = CN[C@@H](Cc1ccccc1)C(=O)O; dDab = NCC[C@@H](N)C(=O)O; Octanoyl = CCCCCCCC(=O)*; Dab = NCC[C@H](N)C(=O)O; Sar = CNCC(=O)O
Reported values of metabolised at 1 h, 50 µM for individual entries
// return numeric value only (unit: %, not printed)

Inquiry: I would be grateful if you could share the reported metabolised at 1 h, 50 µM for CCCCCCCC(=O)N[C@@H](C(=O)N[C@@H](CCN)C(=O)NCC(=O)N[C@H](CO)C(=O)N[C@H](Cc1c[nH]c2ccccc12)C(=O)N[C@@H](CO)C(=O)N[C@@H](CCN)C(=O)N[C@H](CCN)C(=O)N[C@@H](Cc1ccccc1)C(=O)N[C@@H](CCC(=O)O)C(=O)N[C@H](C(=O)N[C@@H](C(=O)N[C@@H](C)C(=O)O)C(C)C)C(C)C)C(C)C (Octanoyl-[dV][Dab]G[dS][dW]S[Dab][dDab]FEV[dV]A-OH) .
Reply text: 60

Inquiry: Can you look up the measured metabolised at 1 h, 50 µM of CCCCCCCC(=O)N[C@@H](C(=O)N[C@@H](C(=O)NCC(=O)N[C@H](CO)C(=O)N[C@H](Cc1c[nH]c2ccccc12)C(=O)N(C)CC(=O)N[C@@H](CCN)C(=O)N[C@H](CCN)C(=O)N(C)[C@@H](Cc1ccccc1)C(=O)N[C@@H](CCC(=O)O)C(=O)N[C@H](C(=O)N[C@@H](C(=O)N[C@@H](C)C(=O)O)C(C)C)C(C)C)C(C)C)C(C)C (Octanoyl-[dV][dV]G[dS][dW][Sar][Dab][dDab][NMeF]EV[dV]A-OH) for me?
Reply text: 12

* * *

# System: D-peptidase TriF
# assaySummary: Substrate activity at Paenibacillus polymyxa CICC10580 D-peptidase TriF expressed in Escherichia coli BL21 assessed as enzyme-mediated compound hydrolysis at 50 uM incubated for 24 hrs by UPLC-MS analysis
# Type: ADME
# conditionLabel: read-out: Activity
quantity: metabolised at 24 h, 50 µM (%)
// note: answer is a bare numeric in %

Inquiry: Would you kindly share the measured metabolised at 24 h, 50 µM for "CCCCCCCC(=O)N[C@@H](C(=O)N[C@H](CCN)C(=O)NCC(=O)N[C@H](CO)C(=O)N[C@H](Cc1c[nH]c2ccccc12)C(=O)N(C)CC(=O)N[C@@H](CCN)C(=O)N[C@H](CCN)C(=O)N[C@@](C)(Cc1ccccc1)C(=O)N[C@@H](CCC(=O)O)C(=O)N[C@H](C(=O)N[C@@H](C(=O)N[C@@H](C)C(=O)O)C(C)C)C(C)C)C(C)C" ?
Reply text: 0

* * *

# Test system: D-peptidase TriF
# assaySummary: Substrate activity at Paenibacillus polymyxa CICC10580 D-peptidase TriF expressed in Escherichia coli BL21 assessed as enzyme-mediated compound hydrolysis at 50 uM incubated for 24 hrs by UPLC-MS analysis
# Type: ADME
# conditionLabel: read-out: Activity
Where a SMILES comes first, the peptide text is derived from it. [ ]: non-standard residue; d: D form. The star is where a group is joined. dDab = NCC[C@@H](N)C(=O)O; Octanoyl = CCCCCCCC(=O)*; Dab = NCC[C@H](N)C(=O)O; Sar = CNCC(=O)O
quantity: metabolised at 24 h, 50 µM (%)
Kindly provide the numeric value in % only, without the unit symbol.

CCCCCCCC(=O)N[C@@H](C(=O)N[C@H](CCN)C(=O)NCC(=O)N[C@H](CO)C(=O)N[C@H](Cc1c[nH]c2ccccc12)C(=O)N[C@@H](CO)C(=O)N[C@@H](CCN)C(=O)N[C@H](CCN)C(=O)N[C@@H](Cc1ccccc1)C(=O)N[C@@H](CCC(=O)O)C(=O)N[C@H](C(=O)N[C@@H](C(=O)N[C@@H](C)C(=O)O)C(C)C)C(C)C)C(C)C (Octanoyl-[dV][dDab]G[dS][dW]S[Dab][dDab]FEV[dV]A-OH) | 100
CCCCCCCC(=O)N[C@@H](C(=O)N[C@H](CCN)C(=O)NCC(=O)N[C@H](CO)C(=O)N[C@H](Cc1c[nH]c2ccccc12)C(=O)N(C)CC(=O)N[C@@H](CCN)C(=O)N[C@H](CCN)C(=O)N[C@@](C)(Cc1ccccc1)C(=O)N[C@@H](CCC(=O)O)C(=O)N[C@H](C(=O)N[C@@H](C(=O)N[C@@H](C)C(=O)O)[C@@H](C)CC)C(C)C)C(C)C | 0

Consider the record given below.
Inquiry: Sample CCCCCCCC(=O)N[C@@H](C(=O)N[C@H](CCN)C(=O)NCC(=O)N[C@H](CO)C(=O)N[C@H](Cc1c[nH]c2ccccc12)C(=O)N(C)CC(=O)N[C@@H](CCN)C(=O)N[C@H](CCN)C(=O)N[C@@H](Cc1ccccc1)C(=O)N[C@@H](CCC(=O)O)C(=O)N[C@H](C(=O)N[C@@H](C(=O)N[C@@H](C)C(=O)O)C(C)C)C(C)C)C(C)C (Octanoyl-[dV][dDab]G[dS][dW][Sar][Dab][dDab]FEV[dV]A-OH) — what was its metabolised at 24 h, 50 µM?
Reply text: 0

* * *

# Tested on: D-peptidase BogQ
# assaySummary: Substrate activity at bacterial D-peptidase BogQ expressed in Escherichia coli BL21 assessed as enzyme-mediated compound hydrolysis at 50 uM incubated for 1 hr by UPLC-MS analysis
# Type: ADME
# conditionLabel: bacteria; read-out: Activity
Where a SMILES comes first, the peptide text is derived from it. [ ]: non-standard residue; d: D form. The star is where a group is joined. NMeF = CN[C@@H](Cc1ccccc1)C(=O)O; dDab = NCC[C@@H](N)C(=O)O; Octanoyl = CCCCCCCC(=O)*; Dab = NCC[C@H](N)C(=O)O; Aib = CC(C)(N)C(=O)O; Sar = CNCC(=O)O
quantity: metabolised at 1 h, 50 µM

For orientation, consider the following solved cases.
CCCCCCCC(=O)N[C@@H](C(=O)N[C@H](CCN)C(=O)NC(C)(C)C(=O)N[C@H](CO)C(=O)N[C@H](Cc1c[nH]c2ccccc12)C(=O)N[C@@H](CO)C(=O)N[C@@H](CCN)C(=O)N[C@H](CCN)C(=O)N(C)[C@@H](Cc1ccccc1)C(=O)N[C@@H](CCC(=O)O)C(=O)N[C@H](C(=O)N[C@@H](C(=O)N[C@@H](C)C(=O)O)C(C)C)C(C)C)C(C)C (Octanoyl-[dV][dDab][Aib][dS][dW]S[Dab][dDab][NMeF]EV[dV]A-OH) | < 5%
CCCCCCCC(=O)N[C@@H](C(=O)N[C@H](CCN)C(=O)N(C)CC(=O)N[C@H](CO)C(=O)N[C@H](Cc1c[nH]c2ccccc12)C(=O)N[C@@H](CO)C(=O)N[C@@H](CCN)C(=O)N[C@H](CCN)C(=O)N(C)[C@@H](Cc1ccccc1)C(=O)N[C@@H](CCC(=O)O)C(=O)N[C@H](C(=O)N[C@@H](C(=O)N[C@@H](C)C(=O)O)C(C)C)C(C)C)C(C)C (Octanoyl-[dV][dDab][Sar][dS][dW]S[Dab][dDab][NMeF]EV[dV]A-OH) | < 5%

Next molecule, please.
Inquiry: Kindly state the measured metabolised at 1 h, 50 µM obtained for CCCCCCCC(=O)N[C@@H](C(=O)N[C@H](CCN)C(=O)NCC(=O)N[C@H](CO)C(=O)N[C@H](Cc1c[nH]c2ccccc12)C(=O)N[C@@H](CO)C(=O)N[C@@H](CCN)C(=O)N[C@H](CCN)C(=O)N[C@@H](Cc1ccccc1)C(=O)N[C@@H](CCC(=O)O)C(=O)N[C@H](C(=O)N[C@@H](C(=O)N[C@@H](C)C(=O)O)C(C)C)C(C)C)C(C)C (Octanoyl-[dV][dDab]G[dS][dW]S[Dab][dDab]FEV[dV]A-OH) with D-peptidase BogQ.
Reply text: > 90%
